molecular target: T1, cyno OX40 (cyno); experiment: ELISA, binding to cyno OX40
T1 construct: also called CyOX40
endpoint name: pEC50
Schema: pEC50 number; meaning minus log10 of the concentration expressed in molar units.

Observe how each entry below is paired with its result.
# binder, experimental result
measured = [
    ("murine antibody A4 (13C2G10F10) (antibody, V domains shown, also called MAb A4; H4/L4) VH: EVQLQQSGPELVKPGASVKMSCKASGYTFTSYIMHWVKQKPGQGLEWIGYINPYNDGTKYNEKFKGKATLTSDKSSSTAYMELSSLTSEDSAVYYCANYYGSSYTMDYWGQGTSVTVSS VL: DIQMTQTTSSLSASLGDRVTISCRASQDIRNYLNWYQQKPDGSVKLLIYYTSRLHSGVPSRFSGSGSGTDYSLTISNLEQEDIATYFCQQGNTLPWTFGGGTKLEIK", 10.52),
    ("murine antibody A5 (40H11C2F5) (antibody, V domains shown, also called MAb A5; H5/L5) VH: EVQLQQSGPELVKPGASVKISCKASGYTFTENYMNWVKQSHGKSLEWIGDINRNNGGTRYNQKFKGKATLTVDKSSSTDYMELRSLTSEDSAVYYCGGTVVGYFDVWGTGTTVTVSS VL: DIQMTQIITSLSASLGDRVTISCRSSQDISNYLNWYQQKPDGTVKLLIYYTSRLKSGVPSRFSGSGSGTDYSLTISNLEQEDIATYFCQQGNTLPWTFGGGTKLEIK", 10.85),
    ("murine antibody A3 (14F2C2D7) (antibody, V domains shown, also called MAb A3; H3/L3) VH: QVQLKESGPGLVAPSQSLSITCTVSGFSLSSYGVHWVRQPPGKGLEWLGVIWAGGSTDYNSALMSRLSISKDNSKSQVVLKMNSLQTDDTAMYYCAREEVWDWGQGTLVTVSA VL: DIQMTQTTSSLSASLGDRVTISCRASQDISNYLNWYQQKPDGTVKLLIYYTSRLQSGVPSRFSGSGSGTDYSLTISNLEQEDIATYFCQQGNTLPLTFGAGTKLELK", 10.77),
]

Request: Requested read-out: pEC50. Entry: murine antibody A6 (2G2E2D8) (antibody, V domains shown, also called MAb A6; Murine A6) VH: EVQLQQSGPELVKPGASVKMSCKASGYTFTSYVMHWVKQKPGQGLEWIGYINPYNDGTKYNEKFKGKATLTSDKSSSTAYMELSSLTSEDSAVYYCANYYGSNYAMDYWGQGTSVTVSS VL: DIQMTQTTSSLSASLGDRVTISCRASQDIRNYLNWYQQKPDGTVKLLIYYTSRLHSGVPSRFSGSGSGTDYSLTISNLEQEDIATYFCQQGNTLPWTFGGGTKLEIK
Response: 10.35
